# assay.procedure: Bidirectional transport across Caco-2 cell transwell model
# Assay type: in vitro ADME
# condition.parameters: human; Caco-2, oridonin 2 µM, apical to basolateral, HBSS pH 7.4, 37 °C, without verapamil
measurement.name: Papp A→B at 2 µM (×10⁻⁶ cm/s)
One number for each entry, in ×10⁻⁶ cm/s.

Lab book: Papp A→B at 2 µM of C=C1C(=O)[C@]23[C@H](O)[C@H]1CC[C@H]2[C@@]12CO[C@]3(O)[C@@H](O)[C@@H]1C(C)(C)CC[C@@H]2O [oridonin] noted as 0.191

----------
# assay.procedure: Bidirectional transport across Caco-2 cell transwell model
# Assay type: in vitro ADME
# condition.parameters: human; Caco-2, oridonin 2 µM, basolateral to apical, HBSS pH 7.4, 37 °C, without verapamil
measurement.name: Papp B→A at 2 µM (×10⁻⁶ cm/s)
Numbers only, in ×10⁻⁶ cm/s.

Lab book: Papp B→A at 2 µM of C=C1C(=O)[C@]23[C@H](O)[C@H]1CC[C@H]2[C@@]12CO[C@]3(O)[C@@H](O)[C@@H]1C(C)(C)CC[C@@H]2O noted as 0.32

----------
# assay.procedure: Metabolic stability in rat liver microsomes
# Assay type: in vitro ADME
# condition.parameters: pH 7.4, with verapamil 0.1 µM, in the presence of verapamil, read-out: metabolic half-life (t1/2)
measurement.name: half-life at 1 µM
Field note: include the unit after the figure.

Lab book: half-life at 1 µM of C=C1C(=O)[C@]23[C@H](O)[C@H]1CC[C@H]2[C@@]12CO[C@]3(O)[C@@H](O)[C@@H]1C(C)(C)CC[C@@H]2O noted as 38.4 min

----------
# assay.procedure: In vivo pharmacokinetic study of oridonin in rats with or without verapamil pre-treatment
# condition.parameters: Sprague-Dawley, rat, plasma, po, intragastrical oridonin (40 mg/kg; n = 6, mean ± SD), pre-treatment of verapamil (10 mg/kg/day for 7 days)
measurement.name: Tmax

Lab book: Tmax of C=C1C(=O)[C@]23[C@H](O)[C@H]1CC[C@H]2[C@@]12CO[C@]3(O)[C@@H](O)[C@@H]1C(C)(C)CC[C@@H]2O [oridonin] noted as 1 h

----------
# assay.procedure: In vivo pharmacokinetic study of oridonin in rats with or without verapamil pre-treatment
# condition.parameters: Sprague-Dawley, rat, plasma, po, intragastrical oridonin (40 mg/kg; n = 6, mean ± SD), control without verapamil, read-out: CLz/F (oral clearance) (converted)
measurement.name: CL/F (mL/min/kg)
One number for each entry, in mL/min/kg.

Lab book: CL/F of C=C1C(=O)[C@]23[C@H](O)[C@H]1CC[C@H]2[C@@]12CO[C@]3(O)[C@@H](O)[C@@H]1C(C)(C)CC[C@@H]2O noted as 245
